Measured mortality at 500 ppm by item
System: Nephotettix cincticeps
Test: Insecticidal activity against Nephotettix cincticeps (green rice leafhopper) in compound treated rice seedlings assessed as mortality at 500 ppm
Type: functional
readout.kind: mortality at 500 ppm (%)

> print(dat)
                                    compound  reading.unit  endpoint.value
 1  Cc1ccccc1C1COC(c2c(F)cccc2F)=N1 (configuration not stated)             %              10
 2  CCOc1ccc(C2COC(c3c(F)cccc3F)=N2)cc1 (configuration not stated)             %               0
 3  CCCCCCCCCCCCCOc1ccc(C2COC(c3c(F)cccc3F)=N2)cc1 (configuration not stated)             %               0
 4  Cc1ccc(C2COC(c3c(F)cccc3F)=N2)cc1 (configuration not stated)             %              60
 5  CCCCCc1ccc(C2COC(c3c(F)cccc3F)=N2)c(OCCC)c1 (configuration not stated)             %              60
 6  CCSc1ccccc1C1=NC(c2ccccc2)CO1 (configuration not stated)             %              10
 7  CCCCCCOc1cc(C(C)(C)C)ccc1C1COC(c2c(F)cccc2F)=N1 (configuration not stated)             %              60
 8  CCCCCCCCCCCCc1ccc(C2COC(c3c(F)cccc3F)=N2)c(F)c1 (configuration not stated)             %               0
 9  CC(C)Cc1ccc(C2COC(c3c(F)cccc3F)=N2)cc1 (configuration not stated)             %               0
10  c1ccc(Oc2ccccc2C2=NC(c3ccccc3)CO2)cc1 (configuration not stated)             %               0
11  Fc1ccc(C2COC(c3c(F)cccc3F)=N2)cc1F (configuration not stated)             %               0
12  CCCCCCCCc1ccc(C2COC(c3c(F)cccc3F)=N2)cc1 (configuration not stated)             %               0

* * *

Test system: Nephotettix cincticeps
Test: Insecticidal activity against Nephotettix cincticeps (green rice leafhopper) in compound treated rice seedlings assessed as mortality at 500 ppm
Assay type: functional
readout.kind: mortality at 500 ppm (%)

> print(dat)
                                    compound  endpoint.value
 1  Cc1cccc(C2=NC(c3ccccc3)CO2)c1 (stereo unspecified)              10
 2  Cc1cc(Cl)ccc1C1COC(c2c(F)cccc2F)=N1 (stereo unspecified)              35
 3  CCCCCCCCCCCCCCOc1ccc(C2COC(c3c(F)cccc3F)=N2)cc1 (stereo unspecified)              10
 4  CCCCCCCCCCCCc1ccc(C2COC(c3c(F)cccc3F)=N2)c(Cl)c1 (stereo unspecified)               0
 5  CCOc1cc(C(C)(C)C)ccc1C1COC(c2c(F)cccc2F)=N1 (stereo unspecified)             100
 6  Fc1cc(Cl)ccc1C1COC(c2c(F)cccc2F)=N1 (stereo unspecified)               0
 7  CC(C)Cc1ccc(C2COC(c3c(F)cccc3F)=N2)c(Cl)c1 (stereo unspecified)              60
 8  COc1cc(F)ccc1C1COC(c2c(F)cccc2F)=N1 (stereo unspecified)             100
 9  COc1cc(Cl)ccc1C1COC(c2c(F)cccc2F)=N1 (stereo unspecified)             100
10  CCCCCc1ccc(C2COC(c3c(F)cccc3F)=N2)c(OCC)c1 (stereo unspecified)             100
11  CCCCOc1ccc(C2COC(c3c(F)cccc3F)=N2)cc1 (stereo unspecified)               0
12  CCCCCCCCCCc1ccc(C2COC(c3c(F)cccc3F)=N2)cc1 (stereo unspecified)               0
13  CCCCCCCCc1ccc(C2COC(c3c(F)cccc3F)=N2)c(C)c1 (stereo unspecified)             100
14  CCOc1cc(C(C)C)ccc1C1COC(c2c(F)cccc2F)=N1 (stereo unspecified)             100
15  CCc1ccc(C2COC(c3c(F)cccc3F)=N2)cc1 (stereo unspecified)              60
16  CCCCCCc1ccc(C2COC(c3c(F)cccc3F)=N2)cc1 (stereo unspecified)               0
17  Fc1cccc(Cl)c1C1=NC(c2ccccc2)CO1 (stereo unspecified)              35
18  FC(F)(F)c1ccccc1C1=NC(c2ccccc2)CO1 (stereo unspecified)               0
19  CCCCCCc1ccc(C2COC(c3c(F)cccc3F)=N2)cc1Cl (stereo unspecified)               0
20  Fc1cccc(F)c1C1=NCC(c2ccccc2)O1 (stereo unspecified)              10
21  CCCOc1cc(C(C)C)ccc1C1COC(c2c(F)cccc2F)=N1 (stereo unspecified)             100

* * *

Tested on: Nephotettix cincticeps
Experiment: Insecticidal activity against Nephotettix cincticeps (green rice leafhopper) in compound treated rice seedlings assessed as mortality at 500 ppm
Type: functional
readout.kind: mortality at 500 ppm (%)

> print(dat)
                                    compound          readout.kind  endpoint.value
 1           Fc1cccc(F)c1-c1ncc(-c2ccccc2)o1  mortality at 500 ppm               0
 2  CN(C)c1ccc(C2COC(c3c(F)cccc3F)=N2)cc1 (configuration not stated)  mortality at 500 ppm               0
 3  CCOc1ccccc1C1=NC(c2ccccc2)CO1 (configuration not stated)  mortality at 500 ppm               0
 4  Fc1cccc(F)c1C1=NC(c2ccc(Cl)c(Cl)c2)CO1 (configuration not stated)  mortality at 500 ppm               0
 5  CC(C)Sc1ccc(C2COC(c3c(F)cccc3F)=N2)cc1 (configuration not stated)  mortality at 500 ppm              10
 6  Fc1cccc(F)c1C1=NC(c2ccc(Cl)cc2Cl)CO1 (configuration not stated)  mortality at 500 ppm              60
 7  CCCCCCCCc1ccc(C2COC(c3c(F)cccc3F)=N2)c(F)c1 (configuration not stated)  mortality at 500 ppm               0
 8  CCCCCCCCCCc1ccc(C2COC(c3c(F)cccc3F)=N2)c(OC)c1 (configuration not stated)  mortality at 500 ppm              10
 9  Clc1ccc(C2=NC(c3ccccc3)CO2)c(Cl)c1 (configuration not stated)  mortality at 500 ppm               0
10  CCCCCCCCCSc1ccc(C2COC(c3c(F)cccc3F)=N2)cc1 (configuration not stated)  mortality at 500 ppm               0
11  CCCCCCCCCCCCc1ccc(C2COC(c3c(F)cccc3F)=N2)cc1 (configuration not stated)  mortality at 500 ppm               0
12  CCCCOc1cc(F)ccc1C1COC(c2c(F)cccc2F)=N1 (configuration not stated)  mortality at 500 ppm             100

* * *

Test system: Nephotettix cincticeps
Test: Insecticidal activity against Nephotettix cincticeps (green rice leafhopper) in compound treated rice seedlings assessed as mortality at 500 ppm
Assay type: functional
Measured mortality at 500 ppm by item
readout.kind: mortality at 500 ppm (%)

> print(dat)
                                    molecule  endpoint.value
 1  Fc1cccc(C2COC(c3c(F)cccc3F)=N2)c1 (stereo not given)              60
 2  Fc1cccc(F)c1C1=NC(c2ccc(Cl)cc2)CO1 (stereo not given)              60
 3  CCCCCCCCc1ccc(C2COC(c3c(F)cccc3F)=N2)c(Cl)c1 (stereo not given)               0
 4  CCc1ccccc1C1COC(c2c(F)cccc2F)=N1 (stereo not given)              60
 5  CCOc1cccc(C2COC(c3c(F)cccc3F)=N2)c1 (stereo not given)               0
 6  Fc1cccc(F)c1C1=NC(c2ccc(OCC(F)(F)F)cc2)CO1 (stereo not given)             100
 7  Oc1ccc(C2COC(c3c(F)cccc3F)=N2)cc1 (stereo not given)              60
 8  Clc1cccc(C2=NC(c3ccccc3)CO2)c1Cl (stereo not given)               0
 9  Cc1ccc(C2=NC(c3ccccc3)CO2)cc1 (stereo not given)               0
10  COc1ccccc1C1=NC(c2ccccc2)CO1 (stereo not given)              10
11  Fc1ccccc1C1COC(c2c(F)cccc2F)=N1 (stereo not given)              35
12  CC(C)Oc1ccc(C2COC(c3c(F)cccc3F)=N2)cc1 (stereo not given)               0
13  CCc1cccc(C2COC(c3c(F)cccc3F)=N2)c1 (stereo not given)              60
14  Fc1cccc(F)c1C1=NC(c2cccc(Cl)c2)CO1 (stereo not given)               0
15  COc1cc(C(C)(C)C)ccc1C1COC(c2c(F)cccc2F)=N1 (stereo not given)              35
16  Fc1cccc(F)c1C1=NC(c2ccc(OC(F)(F)F)cc2)CO1 (stereo not given)              35
17  CS(=O)(=O)c1ccc(C2COC(c3c(F)cccc3F)=N2)cc1 (stereo not given)               0
18  Fc1ccc(C2COC(c3c(F)cccc3F)=N2)c(Cl)c1 (stereo not given)              35
19  Fc1cc(C2COC(c3c(F)cccc3F)=N2)ccc1Cl (stereo not given)              60
20  CC(C)c1ccc(C2COC(c3c(F)cccc3F)=N2)cc1 (stereo not given)              60
21  CC(C)(C)c1ccc(C2COC(c3c(F)cccc3F)=N2)cc1 (stereo not given)              60
22  COc1cccc(C2=NC(c3ccccc3)CO2)c1 (stereo not given)               0
23  COc1ccc(C2=NC(c3ccccc3)CO2)cc1 (stereo not given)              10
24  Fc1cccc(F)c1C1=NC(c2ccc(C(F)(F)F)cc2)CO1 (stereo not given)              60
25  COc1ccccc1C1COC(c2c(F)cccc2F)=N1 (stereo not given)              10

Ref: ChEMBL document CHEMBL3045663
